- Tested on: Saccharomyces cerevisiae
- TEST_DESCRIPTION: protein stability index of tFT-peptide fusion (C-terminal peptide) (PSI (0-1 scale)); higher = more stable (slower turnover)
- SETUP_CONDITIONS: genetic background: das1 deletion; temperature: 30 C
Lab note: anything with protein stability index at or over 0.7 counts as Satisfied; the rest go in Not satisfied.

FKIFCNCIQSLA [YPL199C C-terminal 12 aa] ... Not satisfied
PQMDDHTVISEI [MLO127 C-terminal 12 aa] ... Satisfied
AINYIGNIRRNE [ACO2 C-terminal 12 aa] ... Satisfied
ILGNMEKKKNQD [EPS1 C-terminal 12 aa] ... Satisfied
KALIQRKGGKLE [RPL26A C-terminal 12 aa] ... Not satisfied

Note: attention shifts to another entry.
Request: Test whether the sequence QEFVCFLFWPLT [YOR335W-A C-terminal 12 aa] records protein stability index of 0.7 or higher.
Result: Not satisfied
